The measured values listed here are drawn from patent US20230416329A1.

# System tested: T1, PCSK9 protein (UniProt Q8NBP7 31-692, limits assumed)
# T1 construct: Kit reagent; also called proprotein convertase subtilisin/kexin type 9
# Test summary: PCSK9-LDLR in vitro binding assay kit, OD450/540; peptide 50 µM, PCSK9 75 ng/mL; inhibition of PCSK9 binding to LDLR
Bridge positions count the residues as written; N and C are the ends. Ends that are not written are not given here.
Give Inhibitory rate (%) for every item shown.
Note: state the figure and append the unit.

Exercise: Consider the binder TVFTSGCGRATKSIPPICFWEEYLDWV (disulfide 7-18 (inferred), Hybrid with the anti-trypsin scaffold BT9; A disulfide bond joins the two Cys of the scaffold) [PCSK9_7] and give its measured Inhibitory rate (%).
Key: 80.7%

Exercise: Consider the binder GTNEALDNNCGRATKSIPPICFYVANDLKI (disulfide 10-21 (inferred)) [PCSK9_10] and give its measured Inhibitory rate (%).
Key: -18.5%

Exercise: Consider the binder TVFTSWEEALDWVCGRATKSIPPICF (disulfide 14-25 (inferred), Hybrid of the Pep2-8 analogue with the anti-trypsin scaffold BT9; A disulfide bond joins the two Cys of the scaffold) [PCSK9_2] and give its measured Inhibitory rate (%).
Key: 89.9%
